experiment: Clinical tolerability; type: in vivo; conditions: human, plasma, oral; clinical trial, compound taken with food; read-out: Plasma Cmax that is well-tolerated
measurement-type: Cmax

Q) Please supply the value of reported Cmax for the item Cc1ncc(F)c(Nc2n[nH]c3c2CN(C(=O)N2C[C@@H](C)N(CC4CCOCC4)C[C@@H]2C)C3(C)C)n1 [Compound A]
A) ~2000 ng/mL

* * *

assay: physchem; conditions: pH 7
measurement-type: solubility at 24 h
Number first, unit second: that is the form wanted.

Q) Consider the compound Cc1ncc(F)c(Nc2n[nH]c3c2CN(C(=O)N2C[C@@H](C)N(CC4CCOCC4)C[C@@H]2C)C3(C)C)n1 and give its recorded solubility at 24 h.
A) 1040 µg/mL
